- assay_protocol: protease stability score; higher = more stable; yeast display proteolysis, trypsin and chymotrypsin;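 note: relative to predicted unfolded state with 0 unfolded-like and 1 meaning tenfold more protease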
value_kind: protease stability score

INSERT INTO measurements (residues, obs_value) VALUES
  ('SEEDKATEKFLRELSEWHRTGDEEHFVRNLDPHVRVDIDGVELHGREEVERHLRKRWEKLGVDRFDSELRFKHIHVQGDKIEIHIRIILDINGVHRNVDVEIIALKVNGRWLIQSYHIR', 2.24);

Now for a further sequence.
# protease stability score of SELEELVKRILKFILHSWDTGDEEFDKHMADPNVRVIYNGVDLHGMHTKDDLIKRLGWEQESRIRSIRAIGEKAHMDVELVWRFDGQQRDHDTRVHLDIVNGRSKNMEIRFK = 0.165

---

protease stability score listing for selected sequences.
- assay_protocol: protease stability score; higher = more stable; yeast display proteolysis, trypsin and chymotrypsin;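 note: relative to predicted unfolded state with 0 unfolded-like and 1 meaning tenfold more protease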

Example entries and their recorded answers appear below.
INSERT INTO assay_data (residues, obs_value) VALUES
  ('DEEKKNIERLTEILAHVIRTGDEESWERMMDPNARATQGDKVMVGRDLLEHLWRRIDVIDHVRLEPKHVHRQGDKIHIDVENEVHGTVNGVKISEKHKEILVIYKFDGRWHFHSIEIT', 0.064),
  ('DEHDEHYHRLMKVLVDMMATGDWRTIHELMDPDARSDIDGREVHGREEVIRVIKEFFDKFKGARIEIRLRRWDTINGRIDVRVQLDVNFNGRTEQYDTRIHNVVVDGVSEELTVEVK', 1.39),
  ('DEEDHHLRQIFEELLRALVTGDEEFLEQMADPRTRFILIIDGRRIEWHGREEFFRHFHEWRLRNYRITHLESYNGRIRVEGEVDENFNGKERHTKTHHTIIVINGRLHSIVLNIH', 1.72),
  ('SEEKKFSMEMLELLLHLLLTGDWDKLNKEFDPDYRLIIGDKETIGRESVRERLRLEIERIDHIHDVKIEDWKVQGDKAHIRLRVDGNIDGKRKEFESELIVIIVDGRMKSVRIIIK', 1.97);

Now for a further sequence.
# protease stability score of SEEDDDSREVLELFVRLMVTGDFHELAELLDPNVRTHINGKERVGREQMIKILKRLFDEWGVDRVIVHVKHIDVQGEKAHMDGTLIYGDKMQKSHVTLIYVNGRLERIHIELN = 1.13

---

- assay_protocol: protease stability score; higher = more stable; yeast display proteolysis, trypsin and chymotrypsin;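 note: relative to predicted unfolded state with 0 unfolded-like and 1 meaning tenfold more protease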
Respond with fulfilled for protease stability score values of 1 and above, not fulfilled for values below.

INSERT INTO assay_data (residues, class_label) VALUES
  ('NELEKWVEQATREILRVMETGDPNETEKLIDPHVRREQGEFIYHGWENITHFMEHARFERYKLHDVDLQGDYVNLNGRLDGVYNGKKERTEVEFYVLKINGRWHVTSMHVH', 'fulfilled'),
  ('NEEHEVLERVVELFMEILDTGNERLSRELVDPHVRVIIGDKELHGREQVARFHKELHERVDHWEIHIRRIEFQGDKLHMDFELRNDYNGVRITTDLIILVKKVNGVWKLRAREVR', 'not fulfilled'),
  ('EHEDELKHFIHELWKYASDTGDFRTELLLLDPNAKVQVGDKEYHGREWLEFELRRLGVDRIIKEIHIHHEHEQGDKLEIRGELHLLFNGKRIVIDVKLFFLKIDGKWFNRHIIIK', 'fulfilled'),
  ('DELEHIERRYWHLFVRALETGDEERLDRLVDPHARLDWNGREIVGREHLRHYLSHMRIVIEHHHIKDVNIQGEKIDSDIHLVLTMHVGDKDLEIRTDARSIHLKIDGKWLIESHKIK', 'not fulfilled'),
  ('DEERKIVEKWANEFLQAQITGDEDWFREYADPTTRYNLHIGDYDLHLHGRELVLTFLHEILRKFKNIKIEIKRRNIQGEKTDIDGVENYNGVEHRVRIHLVVINGQLKSYTIKEH', 'not fulfilled'),
  ('SEKERLVLEIYWKIIHSRNTGDEDHWEELADPDMKLTINGVEFHGREATSKFFKEHVKRFGWEFHIHVDRINAFDGRVESHVIIHIQVGDKHIEIEMREEYVVINGVLKEIRILDR', 'fulfilled'),
  ('DHDDHMREHLIELFIRWTTTGDFDELLRLVDPNARFDVNGREIHGWDVFMKMYEDTRHLLGADHAEVRNKDERFQGDKVTITIEVTIEVGDKEHREERELYVRKVDGKWTMKSLKIR', 'not fulfilled'),
  ('DDEEEIFKKAIEDFIRWERTGDWRQLVENLDPNTRVDVNGVYIHGRERIAEWIKHHIERVKNVKHHKHDEKVQGDKLHLDGVIIIDGVRFDVHLIIVVINGQYKHHEVRIR', 'fulfilled');

Task item: Hi, just wondering whether DEDSKHVEHLMRLLIRLLITGDEDTLLNLIDPHARIDINGKEVHGREWAEKFIRRFERDLGVKHNHIEHIELQGDKAHVDFSLRIGDKMIQVHIDIWIVDGKLQSIRIKIK shows protease stability score of 1 or higher.
Reply: fulfilled

Task item: Hi, just wondering whether TEEEEKSWRLAEWFFRIIETGNEHEQKRLADPHVQIHIQIDGRHIHLHGWEELMKELKRLGIKYHKIERLRVIGEKIDEEGRLEINGREHDVRIHILIINGRMNSIHIHIE shows protease stability score of 1 or higher.
Reply: fulfilled

Task item: Hi, just wondering whether SEDEHDARLAIRLLLEALRTGDERIMEELLDPNVRFDINGKEFHGRKYVSEWLHRVDHIESRFELRDVHLFDGRIEVRGILRLHIDVNGKIDDQEKDIVLFVNKVDGRWIVHSWEIH shows protease stability score of 1 or higher.
Reply: fulfilled

Hey, just so you know, these numbers are from the NTF2 design screens of Basanta et al. (2020).
